- Tested system: T1, huIL-17RA-FLAG-polyHis (human, UniProt Q96F46 33-320)
- T1 construct: also called IL-17RA-FLAG-pHis; wild-type IL-17RA
- Assay: binning; IL-17RA held by bead mAb R
The binders listed here are annotated with their normalized MFI.

AMH12/AML12 (antibody, IgG2, V domains shown, human mAb from IgG2 XenoMouse mice; also called AM-12; antibody M) VH: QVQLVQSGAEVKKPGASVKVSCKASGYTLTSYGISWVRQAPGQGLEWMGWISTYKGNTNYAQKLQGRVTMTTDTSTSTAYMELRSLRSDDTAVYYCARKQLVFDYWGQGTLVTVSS VL: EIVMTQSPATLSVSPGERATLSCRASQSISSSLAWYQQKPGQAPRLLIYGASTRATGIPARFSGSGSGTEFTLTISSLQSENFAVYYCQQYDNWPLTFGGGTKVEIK	40

Now examine the next entry.
Task: Please look at this binder and report its normalized MFI: AMH20/AML20 (antibody, IgG2, V domains shown, human mAb from IgG2 XenoMouse mice; also called AM-20; antibody R) VH: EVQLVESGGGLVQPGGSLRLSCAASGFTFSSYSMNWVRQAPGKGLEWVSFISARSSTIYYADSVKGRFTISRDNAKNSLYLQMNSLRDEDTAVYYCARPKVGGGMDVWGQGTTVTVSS VL: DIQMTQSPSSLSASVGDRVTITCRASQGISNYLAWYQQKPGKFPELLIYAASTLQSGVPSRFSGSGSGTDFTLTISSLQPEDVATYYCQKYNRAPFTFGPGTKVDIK
Output: 25
